Molecular target: Melanocyte-stimulating hormone receptor (Mus musculus)
Sequence (Q01727 whole entry): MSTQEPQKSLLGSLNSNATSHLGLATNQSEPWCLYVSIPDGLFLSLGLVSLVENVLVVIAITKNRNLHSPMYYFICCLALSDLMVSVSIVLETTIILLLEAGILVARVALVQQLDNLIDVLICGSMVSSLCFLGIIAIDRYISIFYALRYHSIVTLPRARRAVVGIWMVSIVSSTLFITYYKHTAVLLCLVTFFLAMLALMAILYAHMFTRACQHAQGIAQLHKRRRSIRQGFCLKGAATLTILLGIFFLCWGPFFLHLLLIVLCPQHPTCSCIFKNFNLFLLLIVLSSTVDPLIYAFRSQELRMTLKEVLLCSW
Test: Antagonist activity at mouse melanocortin receptor 1 expressed in HEK293 cells assessed as inhibition of NDP-MSH-induced intracellular cAMP accumulation incubated for 24 hrs by beta-galactosidase reporter gene assay
Format: functional, cell-based
pEC50: −log10 of the molar value.
MEASURED ATTRIBUTE: pEC50

Q: Give pEC50 only, for CCC[C@@H]1CN([C@H](Cc2ccccc2)CN2CCC[C@H]2CN2C(=N)NC[C@H]2CC(C)C)C(=N)N1CCCC(C)C , using Melanocyte-stimulating hormone receptor (Mus musculus) data.
Ans: < 4.00

* * *

Biological target: Melanocortin receptor 3 (Mus musculus)
Test: Agonist activity at mouse melanocortin receptor 3 expressed in HEK293 cells assessed as stimulation of intracellular cAMP accumulation at 10 uM incubated for 24 hrs by beta-galactosidase reporter gene assay relative to control
Assay type: functional, cell-based
Settings: filed as agonist
MEASURED ATTRIBUTE: Emax

>  <COMPOUND>
CC(C)C[C@@H]1CNC(=N)N1C[C@@H]1CCCN1C[C@@H](CC1CCCCC1)N1C[C@@H](C(C)C)N(CC23CC4CC(CC(C4)C2)C3)C1=N

>  <Emax>
70%

$$$$

Q: Let me know recorded Emax for CCC[C@@H]1CN([C@H](Cc2ccccc2)CN2CCC[C@H]2CN2C(=N)NC[C@H]2CC(C)C)C(=N)N1CC12CC3CC(CC(C3)C1)C2 , thanks.
Ans: 74%

Q: Report Emax, nothing else, for this compound: CCC[C@@H]1CN([C@H](Cc2ccccc2)CN2CCC[C@H]2CN2C(=N)NC[C@H]2CC(C)C)C(=N)N1CC1CCC(C(C)(C)C)CC1 (stereo not given in full)
Ans: 73%

Q: Identify measured Emax associated with CC(C)CCCN1C(=N)N([C@H](CC2CCCCC2)CN2CCC[C@H]2CN2C(=N)NC[C@H]2C(C)C)C[C@H]1C(C)C
Ans: 51%

Q: Input CCC[C@@H]1CN([C@H](CC2CCCCC2)CN2CCC[C@H]2CN2C(=N)NC[C@H]2CC(C)C)C(=N)N1CCCC(C)C , output reported Emax.
Ans: 58%

Q: Tell us which Emax value is on record for CC(C)[C@@H]1CNC(=N)N1C[C@@H]1CCCN1C[C@@H](Cc1ccccc1)N1C[C@@H](C(C)C)N(CC2CCC(C(C)(C)C)CC2)C1=N (stereo not given in full)
Ans: 68%

Q: State its Emax: CC(C)C[C@@H]1CNC(=N)N1C[C@@H]1CCCN1C[C@@H](Cc1ccccc1)N1C[C@@H](C(C)C)N(CC23CC4CC(CC(C4)C2)C3)C1=N
Ans: 67%

Q: Hello, please tell me recorded Emax for this one: CCC[C@@H]1CN([C@H](CC2CCCCC2)CN2CCC[C@H]2CN2C(=N)NC[C@H]2C(C)C)C(=N)N1CCCC(C)C
Ans: 51%

Q: Read the entry CC(C)CCCN1C(=N)N([C@H](CC2CCCCC2)CN2CCC[C@H]2CN2C(=N)NC[C@H]2CC(C)C)C[C@H]1[C@@H](C)O and write its reported Emax.
Ans: 58%

Q: Supply reported Emax belonging to this compound: CC(C)C[C@@H]1CNC(=N)N1C[C@@H]1CCCN1C[C@@H](CC1CCCCC1)N1C[C@@H](C(C)C)N(CC2CCC(C(C)(C)C)CC2)C1=N (stereo not given in full)
Ans: 69%

* * *

Emax by entry:
Biological target: Melanocortin receptor 4 (Mus musculus)
Test: Agonist activity at mouse melanocortin receptor 4 expressed in HEK293 cells assessed as stimulation of intracellular cAMP accumulation at 10 uM incubated for 24 hrs by beta-galactosidase reporter gene assay relative to control
Format: functional, cell-based
Settings: filed as agonist
Numeric only. Scale: %

Here are 10 molecules together with their reported answers.
>  <MOLECULE>
CC(C)CCCN1C(=N)N([C@H](CC2CCCCC2)CN2CCC[C@H]2CN2C(=N)NC[C@H]2CC(C)C)C[C@H]1C(C)C

>  <MEASURED ATTRIBUTE>
Emax

>  <UNIT ABBREV>
%

>  <OBSERVED MEASUREMENT>
51

$$$$
>  <MOLECULE>
CCC[C@@H]1CN([C@H](CC2CCCCC2)CN2CCC[C@H]2CN2C(=N)NC[C@H]2C(C)C)C(=N)N1CC1CCC(C(C)(C)C)CC1 (some centres undefined)

>  <MEASURED ATTRIBUTE>
Emax

>  <UNIT ABBREV>
%

>  <OBSERVED MEASUREMENT>
50

$$$$
>  <MOLECULE>
CC(C)CCCN1C(=N)N([C@H](CC2CCCCC2)CN2CCC[C@H]2CN2C(=N)NC[C@H]2CC(C)C)C[C@H]1[C@@H](C)O

>  <MEASURED ATTRIBUTE>
Emax

>  <UNIT ABBREV>
%

>  <OBSERVED MEASUREMENT>
10

$$$$
>  <MOLECULE>
CC(C)C[C@@H]1CNC(=N)N1C[C@@H]1CCCN1C[C@@H](CC1CCCCC1)N1C[C@@H]([C@@H](C)O)N(CC2CCC(C(C)(C)C)CC2)C1=N (some centres undefined)

>  <MEASURED ATTRIBUTE>
Emax

>  <UNIT ABBREV>
%

>  <OBSERVED MEASUREMENT>
45

$$$$
>  <MOLECULE>
CC(C)CCCN1C(=N)N([C@H](CC2CCCCC2)CN2CCC[C@H]2CN2C(=N)NC[C@H]2C(C)C)C[C@H]1C(C)C

>  <MEASURED ATTRIBUTE>
Emax

>  <UNIT ABBREV>
%

>  <OBSERVED MEASUREMENT>
51

$$$$
>  <MOLECULE>
CC(C)[C@@H]1CNC(=N)N1C[C@@H]1CCCN1C[C@@H](CC1CCCCC1)N1C[C@@H]([C@@H](C)O)N(CC23CC4CC(CC(C4)C2)C3)C1=N

>  <MEASURED ATTRIBUTE>
Emax

>  <UNIT ABBREV>
%

>  <OBSERVED MEASUREMENT>
49

$$$$
>  <MOLECULE>
CCC[C@@H]1CN([C@H](CC2CCCCC2)CN2CCC[C@H]2CN2C(=N)NC[C@H]2C(C)C)C(=N)N1CCCC(C)C

>  <MEASURED ATTRIBUTE>
Emax

>  <UNIT ABBREV>
%

>  <OBSERVED MEASUREMENT>
40

$$$$
>  <MOLECULE>
CCC[C@@H]1CN([C@H](Cc2ccccc2)CN2CCC[C@H]2CN2C(=N)NC[C@H]2C(C)C)C(=N)N1CCCC(C)C

>  <MEASURED ATTRIBUTE>
Emax

>  <UNIT ABBREV>
%

>  <OBSERVED MEASUREMENT>
41

$$$$
>  <MOLECULE>
CCC[C@@H]1CN([C@H](CC2CCCCC2)CN2CCC[C@H]2CN2C(=N)NC[C@H]2CC(C)C)C(=N)N1CC12CC3CC(CC(C3)C1)C2

>  <MEASURED ATTRIBUTE>
Emax

>  <UNIT ABBREV>
%

>  <OBSERVED MEASUREMENT>
51

$$$$
>  <MOLECULE>
CCC[C@@H]1CN([C@H](CC2CCCCC2)CN2CCC[C@H]2CN2C(=N)NC[C@H]2CC(C)C)C(=N)N1CC1CCC(C(C)(C)C)CC1 (some centres undefined)

>  <MEASURED ATTRIBUTE>
Emax

>  <UNIT ABBREV>
%

>  <OBSERVED MEASUREMENT>
65

$$$$

Q: Provide measured Emax value, entry: CCC[C@@H]1CN([C@H](Cc2ccccc2)CN2CCC[C@H]2CN2C(=N)NC[C@H]2CC(C)C)C(=N)N1CCCC(C)C
Ans: 51

Q: Return the recorded Emax value; entry: CC(C)[C@@H]1CNC(=N)N1C[C@@H]1CCCN1C[C@@H](CC1CCCCC1)N1C[C@@H](C(C)C)N(CC23CC4CC(CC(C4)C2)C3)C1=N
Ans: 40

Q: Using the record for CC(C)[C@@H]1CNC(=N)N1C[C@@H]1CCCN1C[C@@H](Cc1ccccc1)N1C[C@@H]([C@@H](C)O)N(CC23CC4CC(CC(C4)C2)C3)C1=N , state its measured Emax.
Ans: 75

Q: Consider the molecule CC(C)C[C@@H]1CNC(=N)N1C[C@@H]1CCCN1C[C@@H](Cc1ccccc1)N1C[C@@H]([C@@H](C)O)N(CC23CC4CC(CC(C4)C2)C3)C1=N . State its measured Emax.
Ans: 58

* * *

Target: Melanocortin receptor 4 (Mus musculus) (UniProt P56450)
Sequence (P56450 whole entry): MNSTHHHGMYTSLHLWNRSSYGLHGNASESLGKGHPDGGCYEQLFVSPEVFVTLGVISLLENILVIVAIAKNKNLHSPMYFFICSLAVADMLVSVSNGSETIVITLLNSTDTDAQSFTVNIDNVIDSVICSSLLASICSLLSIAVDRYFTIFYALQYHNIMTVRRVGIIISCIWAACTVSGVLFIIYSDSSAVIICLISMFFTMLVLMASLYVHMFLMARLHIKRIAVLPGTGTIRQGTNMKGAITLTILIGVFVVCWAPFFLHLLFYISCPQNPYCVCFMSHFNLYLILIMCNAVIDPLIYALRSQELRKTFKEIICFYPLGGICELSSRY
Assay: Agonist activity at mouse melanocortin receptor 4 expressed in HEK293 cells assessed as stimulation of intracellular cAMP accumulation at 10 uM incubated for 24 hrs by beta-galactosidase reporter gene assay relative to control
Format: functional, cell-based
Details: filed as agonist
Here, each record is paired with measured Emax data.
Provide only the numeric value, understood in %.

Reference set (4 entries):
>  <COMPOUND>
CC(C)C[C@@H]1CNC(=N)N1C[C@@H]1CCCN1C[C@@H](CC1CCCCC1)N1C[C@@H]([C@@H](C)O)N(CC23CC4CC(CC(C4)C2)C3)C1=N

>  <UNIT ABBREV>
%

>  <OBSERVED MEASUREMENT>
55

$$$$
>  <COMPOUND>
CC(C)C[C@@H]1CNC(=N)N1C[C@@H]1CCCN1C[C@@H](CC1CCCCC1)N1C[C@@H](C(C)C)N(CC23CC4CC(CC(C4)C2)C3)C1=N

>  <UNIT ABBREV>
%

>  <OBSERVED MEASUREMENT>
50

$$$$
>  <COMPOUND>
CC(C)[C@@H]1CNC(=N)N1C[C@@H]1CCCN1C[C@@H](CC1CCCCC1)N1C[C@@H]([C@@H](C)O)N(CC2CCC(C(C)(C)C)CC2)C1=N (stereo not given in full)

>  <UNIT ABBREV>
%

>  <OBSERVED MEASUREMENT>
41

$$$$
>  <COMPOUND>
CC(C)CCCN1C(=N)N([C@H](Cc2ccccc2)CN2CCC[C@H]2CN2C(=N)NC[C@H]2CC(C)C)C[C@H]1C(C)C

>  <UNIT ABBREV>
%

>  <OBSERVED MEASUREMENT>
10

$$$$

Now for another entry.
Q: Give the measured Emax for CC(C)[C@@H]1CNC(=N)N1C[C@@H]1CCCN1C[C@@H](Cc1ccccc1)N1C[C@@H](C(C)C)N(CC23CC4CC(CC(C4)C2)C3)C1=N
Ans: 54

Numbers sourced from ChEMBL document CHEMBL4834429.
